Molecular target: T1, recombinant rat MASP1 active protease (amino acids 302-704, C-terminal His Tag) (rat, UniProt Q8CHN8 302-704)
T1 sequence: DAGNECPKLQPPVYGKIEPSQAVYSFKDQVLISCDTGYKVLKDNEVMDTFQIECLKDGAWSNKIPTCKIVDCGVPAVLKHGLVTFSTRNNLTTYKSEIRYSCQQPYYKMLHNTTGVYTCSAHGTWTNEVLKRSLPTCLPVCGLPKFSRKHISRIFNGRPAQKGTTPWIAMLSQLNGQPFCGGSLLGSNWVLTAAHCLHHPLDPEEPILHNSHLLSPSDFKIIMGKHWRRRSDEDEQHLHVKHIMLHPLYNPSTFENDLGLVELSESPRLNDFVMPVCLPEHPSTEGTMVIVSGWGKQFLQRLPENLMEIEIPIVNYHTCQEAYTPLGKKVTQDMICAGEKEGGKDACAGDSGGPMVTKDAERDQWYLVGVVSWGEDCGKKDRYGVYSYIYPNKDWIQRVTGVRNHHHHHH
Assay: cell-based or functional assay
Numbered stars: 1 amine (or outer) side, 2 acyl side, 3 side chain; on linkers, the order of the positions; unused ones are H or OH. Bridge positions count the residues as written; N and C are the ends. Square brackets hold non-standard residues; d marks the D form. Ends that are not written are not given here. * marks the point of attachment. Phe(2,3-F2) = (2S)-3-(2,3-difluorophenyl)-2-aminopropanoic acid, O=C([C@H](Cc1cccc(F)c1F)N[*:1])[*:2]; X6 = (S)‑(1-Piperidin-3-yl)‑acetic acid, O=C(C[C@@H]1CCCN([*:1])C1)[*:2]; Pro(trans-4-F) = O=C(O)[C@@H]1C[C@@H](F)CN1; Pro(4-spirocPr) = O=C(O)[C@@H]1CC2(CC2)CN1; Benzoyl(4-COOH) = O=C(O)c1ccc(C(=O)*)cc1; Oic = O=C(O)[C@@H]1C[C@@H]2CCCC[C@@H]2N1; tBuAla = CC(C)(C)C[C@H](N)C(=O)O; Chg = N[C@H](C(=O)O)C1CCCCC1; Pen = CC(C)(S)[C@H](N)C(=O)O; NMeC = CN[C@@H](CS)C(=O)O; Abu = CC[C@H](N)C(=O)O; Sar = CNCC(=O)O
Lab note: cut-off is 40 nM. Strictly less in rat MASP1 IC50 is fulfilled. Exactly 40 nM or more is not fulfilled.

{"binder": "{Benzoyl(4-COOH)}-GICSRSLP[Oic]I[Pen]IPD-OH (disulfide 3-11; SMILES CC[C@H](C)[C@H](NC(=O)CNC(=O)c1ccc(C(=O)O)cc1)C(=O)N[C@H]1CSSC(C)(C)[C@@H](C(=O)N[C@H](C(=O)N2CCC[C@H]2C(=O)N[C@@H](CC(=O)O)C(=O)O)[C@@H](C)CC)NC(=O)[C@H]([C@@H](C)CC)NC(=O)[C@@H]2C[C@@H]3CCCC[C@@H]3N2C(=O)[C@@H]2CCCN2C(=O)[C@H](CC(C)C)NC(=O)[C@H](CO)NC(=O)[C@H](CCCNC(=N)N)NC(=O)[C@H](CO)NC1=O) [Example 490: (4-Carboxybenzoic acid)-GIC+SRSLP-(Oic)-I-(Pen)+IPD-OH]", "group-label": "fulfilled"}
{"binder": "[Abu]ICSRS[tBuAla]PPICIPD-NH2 (disulfide 3-11; N-terminus assumed; SMILES CC[C@H](N)C(=O)N[C@H](C(=O)N[C@H]1CSSC[C@@H](C(=O)N[C@H](C(=O)N2CCC[C@H]2C(=O)N[C@@H](CC(=O)O)C(N)=O)[C@@H](C)CC)NC(=O)[C@H]([C@@H](C)CC)NC(=O)[C@@H]2CCCN2C(=O)[C@@H]2CCCN2C(=O)[C@H](CC(C)(C)C)NC(=O)[C@H](CO)NC(=O)[C@H](CCCNC(=N)N)NC(=O)[C@H](CO)NC1=O)[C@@H](C)CC) [Example 66: (Abu)-IC+SRS-((tBu)A)-PPIC+IPD-NH2]", "group-label": "not fulfilled"}
{"binder": "[Sar]ICSRSLP[Oic]I[Pen]IP[X6]-OH (disulfide 3-11; N-terminus assumed; SMILES CC[C@H](C)[C@H](NC(=O)CNC)C(=O)N[C@H]1CSSC(C)(C)[C@@H](C(=O)N[C@H](C(=O)N2CCC[C@H]2C(=O)N2CCC[C@@H](CC(=O)O)C2)[C@@H](C)CC)NC(=O)[C@H]([C@@H](C)CC)NC(=O)[C@@H]2C[C@@H]3CCCC[C@@H]3N2C(=O)[C@@H]2CCCN2C(=O)[C@H](CC(C)C)NC(=O)[C@H](CO)NC(=O)[C@H](CCCNC(=N)N)NC(=O)[C@H](CO)NC1=O) [Example 451: ((N-Me)G)-IC+SRSLP-(Oic)-I-(Pen)+IP-((S)-(1-Piperidin-3-yl)-acetic acid)-OH]", "group-label": "not fulfilled"}
{"binder": "[Sar]ICSRSLPPICI[Pro(trans-4-F)]D-OH (disulfide 3-11; N-terminus assumed; SMILES CC[C@H](C)[C@H](NC(=O)CNC)C(=O)N[C@H]1CSSC[C@@H](C(=O)N[C@H](C(=O)N2C[C@H](F)C[C@H]2C(=O)N[C@@H](CC(=O)O)C(=O)O)[C@@H](C)CC)NC(=O)[C@H]([C@@H](C)CC)NC(=O)[C@@H]2CCCN2C(=O)[C@@H]2CCCN2C(=O)[C@H](CC(C)C)NC(=O)[C@H](CO)NC(=O)[C@H](CCCNC(=N)N)NC(=O)[C@H](CO)NC1=O) [Example 287: ((N-Me)G)-IC+SRSLPPIC+I-((trans-4-Fluoro)P)-D-OH]", "group-label": "not fulfilled"}
{"binder": "[Sar]ICSRSLP[Oic]I[Pen]IP-{PEG5‑CH2CO2H (18 atoms)-NH2} (disulfide 3-11) [Example 83: ((N-Me)G)-IC+SRSLP-(Oic)-I-(Pen)+IP-(PEG5-CH2CO2H (18 atoms))-NH2]", "group-label": "not fulfilled"}
{"binder": "AICSRS[tBuAla]P[Pro(4-spirocPr)]I[NMeC]IPD-NH2 (disulfide 3-11; N-terminus assumed; SMILES CC[C@H](C)[C@H](NC(=O)[C@H](C)N)C(=O)N[C@H]1CSSC[C@@H](C(=O)N[C@H](C(=O)N2CCC[C@H]2C(=O)N[C@@H](CC(=O)O)C(N)=O)[C@@H](C)CC)N(C)C(=O)[C@H]([C@@H](C)CC)NC(=O)[C@@H]2CC3(CC3)CN2C(=O)[C@@H]2CCCN2C(=O)[C@H](CC(C)(C)C)NC(=O)[C@H](CO)NC(=O)[C@H](CCCNC(=N)N)NC(=O)[C@H](CO)NC1=O) [Example 41: AIC+SRS-((tBu)A)-P-((6S)-5-Azaspiro[2.4]heptane-6-carboxylic acid)-I-((N-Me)C)+IPD-NH2]", "group-label": "fulfilled"}
{"binder": "[Abu]ICSRSLPP[Chg]CIPD-NH2 (disulfide 3-11; N-terminus assumed; SMILES CC[C@H](N)C(=O)N[C@H](C(=O)N[C@H]1CSSC[C@@H](C(=O)N[C@H](C(=O)N2CCC[C@H]2C(=O)N[C@@H](CC(=O)O)C(N)=O)[C@@H](C)CC)NC(=O)[C@H](C2CCCCC2)NC(=O)[C@@H]2CCCN2C(=O)[C@@H]2CCCN2C(=O)[C@H](CC(C)C)NC(=O)[C@H](CO)NC(=O)[C@H](CCCNC(=N)N)NC(=O)[C@H](CO)NC1=O)[C@@H](C)CC) [Example 169: (Abu)-IC+SRSLPP-(Chg)-C+IPD-NH2]", "group-label": "not fulfilled"}
{"binder": "[Sar]ICSRS[Phe(2,3-F2)]PPI[Pen]IP-NH2 (disulfide 3-11; N-terminus assumed; SMILES CC[C@H](C)[C@H](NC(=O)CNC)C(=O)N[C@H]1CSSC(C)(C)[C@@H](C(=O)N[C@H](C(=O)N2CCC[C@H]2C(N)=O)[C@@H](C)CC)NC(=O)[C@H]([C@@H](C)CC)NC(=O)[C@@H]2CCCN2C(=O)[C@@H]2CCCN2C(=O)[C@H](Cc2cccc(F)c2F)NC(=O)[C@H](CO)NC(=O)[C@H](CCCNC(=N)N)NC(=O)[C@H](CO)NC1=O) [Example 440: ((N-Me)G)-IC+SRS-((2S)-3-(2,3-difluorophenyl)-2-aminopropanoic acid)-PPI-(Pen)+IP-NH2]", "group-label": "not fulfilled"}
